Would you kindly list pIC50 for each of these compounds?
Biological target: EV-A71 3C protease (Human enterovirus 71, UniProt Q66478)
Sequence (Q66478 1549-1731): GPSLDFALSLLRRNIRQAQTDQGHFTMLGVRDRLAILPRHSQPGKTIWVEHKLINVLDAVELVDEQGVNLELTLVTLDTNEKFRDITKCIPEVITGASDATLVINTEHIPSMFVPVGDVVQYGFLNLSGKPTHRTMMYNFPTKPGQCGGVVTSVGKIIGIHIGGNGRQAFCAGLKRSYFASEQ
pIC50: −log10 of the molar value. Residues, ends and D or L forms follow the SMILES beside them. *: point of attachment. Cbz = O=C(OCc1ccccc1)*

Look over these answered cases.
>  <compound>
CC(C)C[C@@H](C=O)NC(=O)[C@H](CC(C)C)NC(=O)[C@H](CC(C)C)NC(=O)OCc1ccccc1 [MG-132 (43), MG-132] (Cbz-Leu-Leu-Leu-aldehyde)

>  <assayed target>
EV-A71 3C protease (Human enterovirus 71, UniProt Q66478)

>  <result value>
< 4.70

$$$$
>  <compound>
CC(C)C[C@@H](C=O)NC(=O)[C@@H](NS(=O)(=O)c1ccc(F)cc1)C(C)C

>  <assayed target>
EV-A71 3C protease (Human enterovirus 71, UniProt Q66478)

>  <result value>
< 4.70

$$$$

Okay, next one:
Per the record, CC(C)(C)NC(=O)N[C@H](C(=O)N1C[C@H]2[C@@H]([C@H]1C(=O)NC(CC1CCC1)C(=O)C(N)=O)C2(C)C)C(C)(C)C (stereo partly drawn) has pIC50 of < 4.70
